test system: Saccharomyces cerevisiae lifespan shortening, growth inhibition; assay: yeast lifespan shortening compounds, dose response (AID 849);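 further: yeast growth read as optical density after two days at 30 degrees C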
Activity calls are given as the source filed them. How the calls were made is not given here.
Outcome (select one): True (active), False (inactive)

Solved entries:
O=C1NCCCC1C(=O)N/N=C/c1cccc(O)c1 (centres undefined) :: False
COc1ccc(C(=O)C(C)(C)NO)cc1 :: True
CCCn1c(Nc2nc3ccccc3n2C)nc2ccccc21 :: True
CN1CCN(CC(=O)N2CCn3c4c(c5cc(C6CCCCC6)ccc53)CCCC42)CC1 (centres undefined) :: False
CCc1ccc2c(c1)C1(NN=C(c3ccccc3)S1)C(=O)N2 (centres undefined) :: True

QUERY: Entry `CCOc1cccc(-c2nnc3n2N=C(c2cc(OC)ccc2OC)CS3)c1` : call = ?
RESULT: False

====

system: Saccharomyces cerevisiae lifespan shortening, growth inhibition; experiment: yeast lifespan shortening compounds, dose response (AID 849);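 further: yeast growth read as optical density after two days at 30 degrees C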
Activity calls are given as the source filed them. How the calls were made is not given here.
Outcome (select one): active, inactive

Solved entries:
O=C(OCn1ncc(Br)c(Br)c1=O)c1ccc(F)cc1 :: active
COC(=O)Cn1c2ccccc2c2nc(C)sc21 :: inactive
CC(NC(=O)Nc1ccc(Cl)cc1)C(c1cccs1)N1CCOCC1 (configuration not stated) :: inactive
CCOC(=O)c1cnc(-n2nc(C)cc2C)nc1NNc1cc(C)nc(-c2ccccc2)n1 :: inactive
O=C(O)c1ccc(SCc2cnc(Cl)s2)cc1 :: active
Cc1cc(C(=O)COC(=O)c2ccc[nH]c2=O)c(C)n1-c1ccc(F)cc1 :: active

Consider the additional molecule presented here.
QUERY: Entry `COC(=O)CSCc1nc2ccccc2[nH]c1=O` : call = ?
RESULT: inactive

====

tested on: Saccharomyces cerevisiae lifespan shortening, growth inhibition; assay: yeast lifespan shortening compounds, dose response (AID 849);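 further: yeast growth read as optical density after two days at 30 degrees C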
Active and inactive are the calls of the source. No rule for the calls is given here.
Outcome (select one): true for active, false for inactive

O=C1NC(=S)N(c2ccccc2F)C(=O)/C1=C\c1cccs1 :: true

QUERY: Entry `O=C(CSc1cccc[n+]1[O-])c1cc2ccccc2o1` : call = ?
RESULT: true

QUERY: Entry Cc1cccc(NC(=O)CC2SC(=O)N(c3ccccc3)C2=O)c1 (configuration not stated) : call = ?
RESULT: false

QUERY: Entry CCC1CCCCN1C(=O)CSc1nnc(-c2ccc(OC)cc2)o1 (configuration not stated) : call = ?
RESULT: false

QUERY: Entry `Oc1ccc(COCc2ccccc2)c2cccnc12` : call = ?
RESULT: true

QUERY: Entry `O=c1c2c([N+](=O)[O-])cc([N+](=O)[O-])cc2sn1-c1ccc(Br)cc1` : call = ?
RESULT: false

QUERY: Entry `Cc1cc(-c2ccco2)c(C#N)c2nc3ccccc3n12` : call = ?
RESULT: true

QUERY: Entry `O=C(O)CCn1cc(/C=C/C(=O)c2ccc(Cl)cc2)c(-c2ccc(Br)cc2)n1` : call = ?
RESULT: false

QUERY: Entry `S=C1SCN(Cc2ccccn2)CN1Cc1ccco1` : call = ?
RESULT: true

QUERY: Entry CCCC1COC(Cn2cncn2)(c2ccc(Cl)cc2Cl)O1 (configuration not stated) : call = ?
RESULT: true

QUERY: Entry `N#C/C(=C\c1ccc([N+](=O)[O-])o1)c1nc2ccccc2[nH]1` : call = ?
RESULT: false

QUERY: Entry `Cc1cccc(/C(N)=N/OC(=O)c2ccc(F)cc2)c1` : call = ?
RESULT: true

====

test system: Saccharomyces cerevisiae lifespan shortening, growth inhibition; assay: yeast lifespan shortening compounds, dose response (AID 849);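 further: yeast growth read as optical density after two days at 30 degrees C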
Calls of active or inactive are those of the source. No rule for the calls is given here.
Outcome (select one): active, inactive

Solved entries:
Oc1cccc(C=NCc2ccccc2)c1O :: active
Cc1cc(=O)[nH]c(SCc2nc3ccccc3s2)n1 :: inactive
Cc1cc(N2CCN(C(=O)c3ccco3)CC2)n2ncc(-c3ccccc3)c2n1 :: inactive
O=[N+]([O-])c1ccc(O)c2ncccc12 :: active
Nc1nc2sc3c(c2c(=O)s1)CCCC3 :: inactive

QUERY: Entry `CC(C)N=c1scc(-c2cccs2)n1/N=C/c1ccc(O)c(O)c1O` : call = ?
RESULT: inactive

QUERY: Entry `O=[N+]([O-])c1cc(Cc2ccccc2)cc(C=Nc2ccc(N3CCOCC3)cc2)c1O` : call = ?
RESULT: inactive

QUERY: Entry `CC(C)(C)n1nc(-c2ccc(F)cc2)c2c(N)ncnc21` : call = ?
RESULT: active

QUERY: Entry `CCCCCCCCCCCCCCCC[n+]1ccc(/C=N/O)cc1` : call = ?
RESULT: active

QUERY: Entry `Cc1ccc(/C=C2\C(=O)Nc3ccccc32)o1` : call = ?
RESULT: inactive

QUERY: Entry `Cc1csc(NC(=O)Cc2coc3cc(C)c(C(C)C)cc23)n1` : call = ?
RESULT: inactive

QUERY: Entry COc1cc(OC)c(C2CC(=O)N3CN(C)CSC3=C2C#N)cc1OC (centres undefined) : call = ?
RESULT: inactive

QUERY: Entry CC(=O)NC1C(=O)N=C(SCC(=O)NC2CCCCC2)NC1=O (centres undefined) : call = ?
RESULT: inactive

QUERY: Entry `Cc1ccc(O)c(-c2cc(-c3ccccc3C)[nH]n2)c1` : call = ?
RESULT: active

QUERY: Entry CC1CCC2(CC1)NC(=S)N(c1ccccc1)N2 (centres undefined) : call = ?
RESULT: active

QUERY: Entry `NNC(=O)c1ccc(COc2ccc3c(c2)CCC3)o1` : call = ?
RESULT: active

QUERY: Entry `Cc1ccccc1NC(=S)c1nc2ccccc2[nH]1` : call = ?
RESULT: active

QUERY: Entry `Cc1ccc2nc(-c3ccc(NS(=O)(=O)c4ccc(F)c(F)c4)cc3)sc2c1` : call = ?
RESULT: inactive

QUERY: Entry `N#CCSc1nc2ccccc2c2nc3ccccc3n12` : call = ?
RESULT: active

QUERY: Entry `Cc1nnc(C)n1/N=C/c1cc(Br)cc(Br)c1O` : call = ?
RESULT: active

====

test system: Saccharomyces cerevisiae lifespan shortening, growth inhibition; experiment: yeast lifespan shortening compounds, dose response (AID 849);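 further: yeast growth read as optical density after two days at 30 degrees C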
The source made the active and inactive calls. How the calls were made is not given here.
Could you please report measured IC50 for the items listed next?

Record excerpt, results attached:
CCN(CC)S(=O)(=O)c1ccc(NC(=O)CSc2cccc[n+]2[O-])cc1 :: 24.2 µM
COc1cccc(-n2nnnc2S(C)(=O)=O)c1 :: 9.54 µM
CCC(=O)c1c(O)n(C2CCCCCC2)c(=O)[nH]c1=O :: 23.4 µM
CNc1nnc(-c2cc3cc(Cl)ccc3oc2=O)s1 :: > 100 µM (inactive)
O=C(c1ccccc1)c1ccc2nc(N3CCCCC3)c3nncn3c2c1 :: > 100 µM (inactive)

QUERY: GET /values?readout=IC50&item= `Nc1nonc1C(=O)NCCN=Cc1cc(Cc2ccccc2)cc(Br)c1O`
RESULT: > 100 µM (inactive)

====

Could you please report measured IC50 for the items listed next?
tested on: Saccharomyces cerevisiae lifespan shortening, growth inhibition; experiment: yeast lifespan shortening compounds, dose response (AID 849);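 further: yeast growth read as optical density after two days at 30 degrees C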

Record excerpt, results attached:
Cc1cc(C)c2c(N=NN3CCCCC3)[nH]nc2n1 :: 5.02 µM
O=C(O)c1cc2ccc3ccccc3c2oc1=O :: 20.6 µM
CCOC(=O)C1=Nc2ccccc2C1=[N+]=[N-] :: 5.58 µM

// input: 3 molecules below; output: IC50 for each
1. CC(C)(C)C(=O)O/N=C1/C(=O)N(c2ccccc2)c2ccccc21
2. Cc1nn2c(-c3ccncc3)nnc2c2ccccc12
3. CCOC(=O)/C(=N\Nc1ccccc1Cl)N1CCN(Cc2ccccc2)CC1

RESULT:
1: 30.6 µM; 2: 6.35 µM; 3: 17.9 µM

====

test system: Saccharomyces cerevisiae lifespan shortening, growth inhibition; test: yeast lifespan shortening compounds, dose response (AID 849);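 further: yeast growth read as optical density after two days at 30 degrees C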
The source made the active and inactive calls. How the calls were made is not given here.
Outcome (select one): active, inactive

CN(C)CCNC=C(C(=O)Nc1ccc(Cl)cc1Cl)C(=O)Nc1ccc(Cl)cc1Cl :: active
O=C1CSC(=S)N1c1cccnc1 :: active
Cc1ccc(-n2nnc3c(=O)n(CC(=O)N4CCC(C)CC4)cnc32)cc1 :: inactive
COc1ccccc1-c1nnc(NC(=O)C(C)SC2=NCCS2)s1 (stereo not drawn) :: inactive
Cc1cc(-c2n[nH]c(=S)n2/N=C/c2cc([N+](=O)[O-])ccc2Cl)n[nH]1 :: inactive

QUERY: Entry O=C(Nc1cc(C(F)(F)F)ccc1Cl)C(Sc1cccc[n+]1[O-])c1ccccc1 (stereo not drawn) : call = ?
RESULT: active

QUERY: Entry `Cc1noc2ncnc(Sc3ccccc3Cl)c12` : call = ?
RESULT: active

QUERY: Entry `Cc1cc2nc(C)n3c4ccccc4nc3n2n1` : call = ?
RESULT: active

QUERY: Entry `CC1(C)CC(=NOC(=O)c2ccccc2)CC(C)(C)N1O` : call = ?
RESULT: active
